target: Shiga toxin 2 (Escherichia coli O157:H7) (UniProt P09385+P09386); assay: E. coli 0.157:H7 Shiga Toxin SOP - stx2 screening assay; assay type: functional; parameters: scale not given: direction of the effect not stated beside the values; settings: 30 µM
readout: Percent Effect (%)

INSERT INTO results (molecule, readout, result) VALUES
  ('CC(Cn1ccnc1)NC(=O)C1(c2ccc3c(c2)OCCO3)CCCC1 (stereo unspecified)', 'Percent Effect', -20.7),
  ('Cn1nc(CNC(=O)c2nc3ccccc3s2)c2c1CCOC2', 'Percent Effect', 1.68),
  ('CC(=O)N(Cc1ncc(C(C)C)o1)C1CCN(Cc2ncc[nH]2)C1 (stereo unspecified)', 'Percent Effect', 10.9),
  ('Cn1cnc2c1C(COCC1CCOCC1)CN(C(=O)c1ccoc1)C2 (stereo unspecified)', 'Percent Effect', -11.7),
  ('O=C1COC2(CCN(C(=O)c3ccco3)CC2)CN1Cc1cccnc1', 'Percent Effect', -14.9),
  ('COC(=O)c1cccn1C1CCN(C(=O)c2cc(F)ccc2F)CC1', 'Percent Effect', 19.6),
  ('Cc1cc(=O)n2ncnc2n1CC(O)c1ccccc1Cl (stereo unspecified)', 'Percent Effect', -19.6),
  ('Cc1cc(C(=O)N2CCCCC2C)ccc1NCC(=O)N1CCOCC1 (stereo unspecified)', 'Percent Effect', -49.1),
  ('CC[C@@H]1N(CC2CC2)CCC[C@]12CCC(=O)N2CCOC', 'Percent Effect', -1.83),
  ('CCc1nccn1C1CCCN(C(=O)CCc2nccs2)C1 (stereo unspecified)', 'Percent Effect', 16.2),
  ('COc1ccccc1OCC(=O)NS(=O)(=O)c1ccccc1Br', 'Percent Effect', -14.2);

====

biological target: Shiga toxin 2 (Escherichia coli O157:H7) (UniProt P09385+P09386); assay: E. coli 0.157:H7 Shiga Toxin SOP - stx2 screening assay; type: functional; set-up: scale not given: direction of the effect not stated beside the values; settings: 30 µM
readout: Percent Effect (%)

INSERT INTO measurements (compound, result) VALUES
  ('CN(C)c1cc2c(nn1)CCN(C(=O)C1CCc3ccccc31)C2 (stereo unspecified)', 5.96),
  ('C[C@@H]1CN(C(=O)c2cnc(C3CC3)nc2)CC[C@@]1(O)C1CCOCC1', 0.847),
  ('C[C@]1(O)CCN(Cc2cncs2)C[C@@H]1Oc1cccc(F)c1', 35.4),
  ('Cc1ccc(CNC(=O)CN2CCN(CC(O)c3ccco3)CC2)cc1 (stereo unspecified)', -10.6),
  ('O=C1CC(c2ccsc2)c2c(n(C3CCOCC3)[nH]c2=O)N1 (stereo unspecified)', -30.3),
  ('O=c1cc(CN2CCCC2)nc2n1CCCN(Cc1ccsc1)C2', -22.4),
  ('O=C(NCc1nnc2n1CCCCC2)N1CCc2sccc2C1', -45.2),
  ('O=C(NCC1CC1)C1CSCN1S(=O)(=O)c1cccc(F)c1 (stereo unspecified)', -5.9),
  ('Cc1nc(CN2CCCN(CCOc3cccc(C#N)c3)CC2)no1', 19.3),
  ('CS(=O)(=O)c1ccccc1C(=O)NCC1Cc2ccccc2O1 (stereo unspecified)', -13),
  ('O=C(c1cscn1)N1C[C@@H]2[C@@H](C1)OCC(=O)N2CC1CCCC1', -48.6);
